Readings of koff for the listed binders
# TARGET: T1, hRET.mFc (human)
# T1 construct: also called dimeric human RET
# PROTOCOL_TEXT: SPR Biacore T200, mAb capture, 37 C

>  <BINDER>
H4H8085P (antibody, human IgG4, V domains shown, human IgG4 Fc (H4H prefix)) VH: QVQLVESGGGVVQPGRSLRLSCTASGFTFDNYGMHWVRQAPGKGLEWVAVISYDGSNTFYADSVKGRFTISRDNSKNALYLQMNSLRAEDTAVYYCAKDLEFDILIGYPFDSWGRGTLVTVSS VL: DIQLTQSPSFLSASVGDRVTITCWASQDISRYLAWYQQKPGKAPNLLIYAASTLQSGVPSRFSGSGSGTEFTLTINSLQPEDFATYYCQQLFSYPRTFGQGTKVEIK

>  <koff / s⁻¹>
0.00055

$$$$
>  <BINDER>
H4H8046P (antibody, human IgG4, V domains shown, human IgG4 Fc (H4H prefix)) VH: QVQLVQSRDEVKKPGASVKVSCKASGYTFTTYGISWVRQAPGQGLEWMGWINTYNGDTNYAQKVQDRVIMTTDTSTSTAYMELRSLRSDDTAVYFCAGARPLGGRRAFDIWGQGTMVTVSS VL: DIQMTQSPSSLSASVGDRVTITCRASQGISHYLAWYQQKPGKVPKLLIYAASTLQSGVPSRFSGSGSGTDFTLTISSLQPEDVATYYCQKYNSVPWTFGQGTKVEIK

>  <koff / s⁻¹>
0.000694

$$$$
>  <BINDER>
H4H8083P (antibody, human IgG4, V domains shown, human IgG4 Fc (H4H prefix)) VH: QVQLVESGGGVVQPGRSLRLSCAASGFTFNNYVMHWVRQAPGKGLEWVALIWYDGSNKYYADSVKGRFTISRDNSKNALNLQMNSLRAEDTAVYFCARVSIAARNYYYGGLDVWGQGTTVTVSS VL: EIVLTQSPGTLSLSPGERATLSCRASQSVSSTYLAWYQQKPGQAPRLLIYGASSRATGIPDRFSGSGSGTDFTLTISRLEPEDFAVYYCQHYGGSPLTFGGGTKVEIK

>  <koff / s⁻¹>
0.0008

$$$$
